Reference source: patent US20240360228A1

target: T1, human CCR8 (human, UniProt P51685 1-355); assay: flow blocking, PBMC CCR8+CD4+; competitor PE-AB2
T1 construct: Native CCR8 on human PBMC (CCR8+ CD3+ or CCR8+ CD4+ lymphocytes); also called chemokine (C-C motif) receptor 8
T1 sequence (P51685 whole entry): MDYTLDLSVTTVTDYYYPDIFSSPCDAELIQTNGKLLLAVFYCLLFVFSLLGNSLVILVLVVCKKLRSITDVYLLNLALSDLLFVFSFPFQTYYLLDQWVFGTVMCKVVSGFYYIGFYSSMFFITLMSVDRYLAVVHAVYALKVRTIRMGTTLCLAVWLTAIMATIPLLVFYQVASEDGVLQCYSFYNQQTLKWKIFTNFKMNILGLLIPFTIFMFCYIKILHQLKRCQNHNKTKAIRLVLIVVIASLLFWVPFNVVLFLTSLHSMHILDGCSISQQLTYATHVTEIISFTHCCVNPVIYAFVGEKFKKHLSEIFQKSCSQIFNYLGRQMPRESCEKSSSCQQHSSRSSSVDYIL
In this section, each of the binders is paired with its reported % Positive cells.

{"binder": "AB2 (antibody, V domains shown, Hybridoma monoclonal; Same VH/VL entries as AB1; also called antibody 2; clone 2) VH: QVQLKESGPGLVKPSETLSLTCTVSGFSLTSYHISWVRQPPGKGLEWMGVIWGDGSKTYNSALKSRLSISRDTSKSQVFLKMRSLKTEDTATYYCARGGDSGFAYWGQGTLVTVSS VL: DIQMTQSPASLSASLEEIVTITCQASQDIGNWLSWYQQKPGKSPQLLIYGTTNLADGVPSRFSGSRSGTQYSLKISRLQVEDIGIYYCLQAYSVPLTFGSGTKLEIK", "% Positive cells": "0.02%"}
{"binder": "AB12 (antibody, V domains shown, Hybridoma monoclonal; also called antibody 12; clone 12) VH: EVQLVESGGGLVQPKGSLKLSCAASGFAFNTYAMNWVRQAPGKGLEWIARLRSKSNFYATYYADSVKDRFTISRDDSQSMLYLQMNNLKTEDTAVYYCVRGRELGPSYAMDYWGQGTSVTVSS VL: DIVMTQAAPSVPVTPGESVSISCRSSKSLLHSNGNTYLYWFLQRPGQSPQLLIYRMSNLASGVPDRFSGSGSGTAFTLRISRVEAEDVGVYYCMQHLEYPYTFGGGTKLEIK", "% Positive cells": "2.18%"}
{"binder": "AB10 (antibody, V domains shown, Hybridoma monoclonal; also called antibody 10; clone 10) VH: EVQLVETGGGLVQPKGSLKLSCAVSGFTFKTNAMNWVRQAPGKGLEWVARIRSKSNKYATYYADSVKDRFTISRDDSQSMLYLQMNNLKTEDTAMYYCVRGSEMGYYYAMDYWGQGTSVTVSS VL: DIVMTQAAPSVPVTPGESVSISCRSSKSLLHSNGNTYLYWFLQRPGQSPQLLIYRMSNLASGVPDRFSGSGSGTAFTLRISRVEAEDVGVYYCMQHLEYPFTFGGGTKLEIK", "% Positive cells": "2.3%"}
{"binder": "AB14 (antibody, V domains shown, Hybridoma monoclonal; Same VH/VL entries as AB15; also called antibody 14; clone 14) VH: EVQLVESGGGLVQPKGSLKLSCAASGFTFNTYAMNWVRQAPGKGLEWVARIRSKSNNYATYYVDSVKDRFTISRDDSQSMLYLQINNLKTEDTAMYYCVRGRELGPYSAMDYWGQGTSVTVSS VL: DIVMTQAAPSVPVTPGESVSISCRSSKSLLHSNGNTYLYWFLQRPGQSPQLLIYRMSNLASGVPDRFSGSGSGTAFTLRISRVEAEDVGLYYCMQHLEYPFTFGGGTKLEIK", "% Positive cells": "1.81%"}

Proceed to the following item.
IN: Quick one: % Positive cells for AB11 (antibody, V domains shown, Hybridoma monoclonal; also called antibody 11; clone 11) VH: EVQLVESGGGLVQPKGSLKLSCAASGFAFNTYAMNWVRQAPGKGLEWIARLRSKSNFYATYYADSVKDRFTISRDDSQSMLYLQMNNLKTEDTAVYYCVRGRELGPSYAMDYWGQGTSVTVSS VL: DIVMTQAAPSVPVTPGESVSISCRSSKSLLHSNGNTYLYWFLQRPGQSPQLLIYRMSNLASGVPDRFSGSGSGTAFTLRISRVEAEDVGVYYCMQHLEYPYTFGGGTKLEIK ?
OUT: 2.01%
